assay: recombinant barcode read abundance after kanamycin selection (control-corrected) (log10(CPM+1)); higher = more efficient recombination; sequences stand for … in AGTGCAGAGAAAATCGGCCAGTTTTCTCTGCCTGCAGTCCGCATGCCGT…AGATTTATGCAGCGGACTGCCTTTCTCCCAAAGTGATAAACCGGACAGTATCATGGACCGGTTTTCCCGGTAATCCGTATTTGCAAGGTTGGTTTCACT; site = the 11-nt target;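 note: IS621 recombinase and bridge RNA in Escherichia coli cells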
recorded_endpoint: recombinant barcode read abundance (log10)
Enter a number only.

According to the records, this sequence TAGGCTACTTGGGTTCTAACCTGTTGCAG (site TAGGCTACTCT) displays recombinant barcode read abundance (log10) of 1.97

According to the records, this sequence ACAGAGACTTGGGTTCTAACCTGTTGCGC (site ACACAGACTGC) displays recombinant barcode read abundance (log10) of 0.127

According to the records, this sequence GTGAGGACTTGGGTTCTAACCTGTTGCCT (site CTGAGGACTAG) displays recombinant barcode read abundance (log10) of 0.133

According to the records, this sequence CTTCACCCTTGGGTTCTAACCTGTTGCCT (site CTTCATCCTAG) displays recombinant barcode read abundance (log10) of 0.00728

According to the records, this sequence CCTAAACCTTGGGTTCTAACCTGTTGCGT (site CCTAATCCTAC) displays recombinant barcode read abundance (log10) of 0.0605

According to the records, this sequence AGGTATGCTTGGGTTCTAACCTGTTGCCT (site AGGTGTGCTAG) displays recombinant barcode read abundance (log10) of 0.51

According to the records, this sequence AGCGAATCTTGGGTTCTAACCTGTTGCCT (site AGCGAATCTAG) displays recombinant barcode read abundance (log10) of 0.719

According to the records, this sequence GCACCGCCTTGGGTTCTAACCTGTTGCCT (site TCACCGCCTAG) displays recombinant barcode read abundance (log10) of 0.0378

According to the records, this sequence TTACGAGCTTGGGTTCTAACCTGTTGCGG (site TTACGAGCTCC) displays recombinant barcode read abundance (log10) of 1.81

According to the records, this sequence CTCTGCTCTTGGGTTCTAACCTGTTGCTC (site CTCTGCTCTGA) displays recombinant barcode read abundance (log10) of 0.724
